Quick list: EC50 per entry.
Tested on: ischaemic/reperfusion rat livers
Assay: Ischaemic/reperfusion injury in rat livers (LDH release, bile production)
Parameters: species or system Female Sprague-Dawley rats
Details: Rattus norvegicus; molar dose for 50% reduction of LDH release compared to control; 30 min ischaemia, 100 min reperfusion; read-out: ED50 (the source's name)
Give the value in µM but do not write µM after it.

These recorded examples may help you get a feel for the data.
compound: CCCCCC(=O)Oc1ccccc1C(=O)O
subject_of_test: ischaemic/reperfusion rat livers
EC50 / µM: 29.1
--
compound: CCCC(=O)Oc1ccccc1C(=O)O
subject_of_test: ischaemic/reperfusion rat livers
EC50 / µM: 48.8

**Query** Note EC50 for the compound shown: CCCCC(=O)Oc1ccccc1C(=O)O
**Result** 34.6

**Query** Answer with reported EC50 of O=C(O)c1cc(-c2ccc(F)cc2F)ccc1O [DF, reference compound]
**Result** 25.2

**Query** Please look at this compound and report its EC50: O=C(O)c1ccccc1O [SA, 2-hydroxybenzoic acid, reference compound]
**Result** 72.6

###

Tested on: in-situ perfused rat liver
Assay: In-situ rat liver perfusion bolus studies, moments and dispersion model analysis (Example 3)
Assay type: in vitro ADME, Sprague-Dawley rats
Conditions: determined using equation 5 & 6; n = 3, Mean S.E.
// a (dispersion model) lookup, one value per entry
Write no unit; give the number alone.

Illustrative cases are given below, each with its answer.
molecule: CCCCC(=O)Oc1ccc(-c2ccc(F)cc2F)cc1C(=O)O
subject_of_test: in-situ perfused rat liver
measurement: 1.77

molecule: CCCC(=O)Oc1ccc(-c2ccc(F)cc2F)cc1C(=O)O
subject_of_test: in-situ perfused rat liver
measurement: 1.87

molecule: O=C(O)c1cc(-c2ccc(F)cc2F)ccc1O [DF, reference compound]
subject_of_test: in-situ perfused rat liver
measurement: 1.33

**Query** Provide a (dispersion model) value for the following molecule: CCCCCC(=O)Oc1ccc(-c2ccc(F)cc2F)cc1C(=O)O
**Result** 1.77

###

Hepatic availability (F) listing for selected compounds.
Test system: in-situ perfused rat liver
Assay: In-situ rat liver perfusions, hepatic availability (Example 2)
Format: in vitro ADME
Conditions: 2% BSA in Krebs-Henseleit buffer as perfusate, 30 mL/min, bolus
Method: The hepatic availability (Fhepatic) for the O-acyl esters of the salicylic acid and diflunisal was determined using a once through in-situ perfused rat liver preparation (Mellick et al, Unpublished Results). […] The hepatic availability (F) was determined from the outflow concentration versus time profiles for the esters using equation 1, with the assistance of the Moments Calculator 2.2 program for Macintosh computer developed by Robert Purves. […]
A bare number is all that is needed in reply.

line_notation: CC(=O)Oc1ccc(-c2ccc(F)cc2F)cc1C(=O)O
Hepatic availability (F): 0.21
//
line_notation: CCCCC(=O)Oc1ccc(-c2ccc(F)cc2F)cc1C(=O)O
Hepatic availability (F): 0.38
//
line_notation: CCCC(=O)Oc1ccc(-c2ccc(F)cc2F)cc1C(=O)O
Hepatic availability (F): 0.34

**Query** Determine from records and report Hepatic availability (F) for CCCCCC(=O)Oc1ccc(-c2ccc(F)cc2F)cc1C(=O)O
**Result** 0.38

###

System: in-situ perfused rat liver
Assay: In-situ rat liver perfusion bolus studies, moments and dispersion model analysis (Example 3)
Assay type: in vitro ADME, Sprague-Dawley rats
Details: n = 3, Mean S.E.
measurement_label: RN/fub (removal of unbound solute)
The response must contain the number and no unit.

Consider the following illustrative entries.
molecule: CCCC(=O)Oc1ccc(-c2ccc(F)cc2F)cc1C(=O)O
RN/fub (removal of unbound solute): 11.17
--
molecule: O=C(O)c1cc(-c2ccc(F)cc2F)ccc1O [DF, reference compound]
RN/fub (removal of unbound solute): 9.51
--
molecule: CCCCCC(=O)Oc1ccc(-c2ccc(F)cc2F)cc1C(=O)O
RN/fub (removal of unbound solute): 16.50
--
molecule: CC(=O)Oc1ccc(-c2ccc(F)cc2F)cc1C(=O)O
RN/fub (removal of unbound solute): 9.57

Here's the next entry for you.
**Query** In one line, give reported RN/fub (removal of unbound solute) of the entry CCCCC(=O)Oc1ccc(-c2ccc(F)cc2F)cc1C(=O)O .
**Result** 11.04
